Taken from patent US5082845A.

Test system: stress-induced gastric ulcer in rats
Test: Protective effect on gastric ulcer induced by restraint plus water-immersion stress in rats
Assay type: in vivo, male Sprague-Dawley rats
Settings: 10 mg/kg po, mean ± S.E., series with control (distilled water) 26.2 ± 1.6 mm
# Ulcer index per record follows
measuredProperty: Ulcer index (mm)

compound: CCn1c(=O)n(CC(C)C)c(=O)c2c1ncn2CCCCC(O)CO (stereo not drawn)
recordedNumber: 7.1

compound: CCCn1c(=O)c2c(ncn2CCCC(O)C(C)O)n(CC)c1=O (stereo not drawn)
recordedNumber: 4.3

compound: CCCCn1c(=O)c2c(ncn2CCCCC(O)CO)n(C)c1=O (stereo not drawn)
recordedNumber: 4.5

compound: C=CCn1cnc2c1c(=O)n(CCCCC(C)O)c(=O)n2C (stereo not drawn)
recordedNumber: 13.4

compound: C=CCn1c(=O)c2c(ncn2CCCCC(O)CO)n(CC)c1=O (stereo not drawn)
recordedNumber: 7.0

compound: CC(=O)Cn1c(=O)c2c(ncn2CCCCC(C)O)n(C)c1=O (stereo not drawn)
recordedNumber: 15.0

compound: CCCn1c(=O)n(CCCCC(C)=O)c(=O)c2c1ncn2CCCCC(O)CO (stereo not drawn)
recordedNumber: 20.2

compound: CCn1c(=O)n(C(C)C)c(=O)c2c1ncn2CCCCC(O)CO (stereo not drawn)
recordedNumber: 11.5

compound: CCCn1c(=O)c2c(ncn2CCCCCC(O)CO)n(CC)c1=O (stereo not drawn)
recordedNumber: 8.9

compound: CCCCCn1c(=O)c2c(ncn2CCCCC(O)CO)n(CC)c1=O (stereo not drawn)
recordedNumber: 9.2

compound: CC(=O)CCCCn1c(=O)c2c(ncn2CCCCC(O)CO)n(C)c1=O (stereo not drawn)
recordedNumber: 13.8

compound: CCCCn1c(=O)c2c(ncn2CCCCC(C)O)n(C)c1=O (stereo not drawn)
recordedNumber: 10.6

compound: CCCn1cnc2c1c(=O)n(CCCCC(O)CO)c(=O)n2CC (stereo not drawn)
recordedNumber: 10.4

compound: CCn1c(=O)n(CC(C)O)c(=O)c2c1ncn2CCCCC(O)CO (stereo not drawn)
recordedNumber: 20.7

compound: CCn1c(=O)n(CC(C)=O)c(=O)c2c1ncn2CCCCC(O)CO (stereo not drawn)
recordedNumber: 20.4
